This collection of values is drawn from ChEMBL document CHEMBL4402598.

- target-system: D(2) dopamine receptor (Homo sapiens, UniProt P14416)
- Sequence (P14416 whole entry): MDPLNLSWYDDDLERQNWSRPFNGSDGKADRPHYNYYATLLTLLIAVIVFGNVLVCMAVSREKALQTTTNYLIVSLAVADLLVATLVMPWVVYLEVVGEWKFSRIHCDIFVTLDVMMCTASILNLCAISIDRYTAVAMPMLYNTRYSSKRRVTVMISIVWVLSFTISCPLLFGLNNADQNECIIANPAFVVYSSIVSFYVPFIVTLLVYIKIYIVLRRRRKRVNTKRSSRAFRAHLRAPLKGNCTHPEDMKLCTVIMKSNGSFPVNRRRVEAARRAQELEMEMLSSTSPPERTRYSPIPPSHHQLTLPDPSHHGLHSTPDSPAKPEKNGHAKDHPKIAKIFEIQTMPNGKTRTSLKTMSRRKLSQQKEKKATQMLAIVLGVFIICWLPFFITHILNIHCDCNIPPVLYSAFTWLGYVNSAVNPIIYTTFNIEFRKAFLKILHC
- assay-summary: Displacement of [3H]-N-methylspiperone from recombinant human D2 receptor stably expressed in fibroblast cell membranes measured after 90 mins by microbeta scintillation counting method
pKi: −log10 of the molar value.
endpoint: pKi

Field pKi (entry CCCN(CCCCNC(=O)c1ccc(-c2ccccn2)cc1)CC1CC1c1ccc(Cl)cc1 (stereo not drawn) ) reads < 5.30

Field pKi (entry CCCN(CCCCNC(=O)c1ccc2ccccc2c1)CC1CC1c1ccc(C(F)(F)F)cc1 (stereo not drawn) ) reads < 5.30

Field pKi (entry CCCN(CCCCNC(=O)c1ccc(-c2ccccn2)cc1)CC1CC1c1cccc(F)c1 (stereo not drawn) ) reads < 5.30
